Tested on: Cullin-3 (CUL3) neddylation
Assay: AlphaLISA assay for Cullin-3 (CUL3) neddylation in TF 1 cells
Type: cell-based
Details: Homo sapiens, TF-1, 3 h, 3 hours treatment
QUANTITY NAME: IC50

# annotated cases, reported IC50 shown
{"COMPOUND": "CCN1C(=O)[C@@H](NC(=O)c2cccc(C(F)(F)F)c2)[C@@H](c2ccc(F)nc2)c2c(C(=O)N3CCC[C@H]3C#N)nn(C3CC3)c21 (mixture of isomers)", "EXPERIMENTAL TARGET": "Cullin-3 (CUL3) neddylation", "IC50": "100 to 1000 nM"}
{"COMPOUND": "CCN1C(=O)[C@@H](NC(=O)c2cccc(C(F)(F)F)c2)[C@@H](c2ccc(F)cc2)c2c(CNC/C=C/C(=O)N3CCCC3)nn(-c3ccccc3)c21", "EXPERIMENTAL TARGET": "Cullin-3 (CUL3) neddylation", "IC50": "100 to 1000 nM"}
{"COMPOUND": "CCN1C(=O)[C@@H](NC(=O)c2cccc(C(F)(F)F)c2)[C@@H](C2CC2)c2c(C(=O)N(C)[C@@H](C)C#N)nn(C3CCOCC3)c21", "EXPERIMENTAL TARGET": "Cullin-3 (CUL3) neddylation", "IC50": "≤ 100 nM"}
{"COMPOUND": "CCN1C(=O)[C@@H](NC(=O)c2ccc3nn[nH]c3c2)[C@@H](C2CC2)c2c(C(=O)N3[C@H](C#N)C[C@H]4C[C@H]43)nn(C3CCOCC3)c21", "EXPERIMENTAL TARGET": "Cullin-3 (CUL3) neddylation", "IC50": "> 1000 nM"}

Now, please, on to the next compound.
Data request: Recorded IC50 for C=CC(=O)N[C@H](C)c1nn(-c2ccccc2)c2c1[C@H](c1ccc(F)cc1)[C@@H](NC(=O)c1nccc(C(F)(F)F)n1)C(=O)N2CC with Cullin-3 (CUL3) neddylation, please?
Data returned: > 1000 nM

Numbers sourced from patent US20250163057A1.
